- Test system: turtle Thyroid Hormone Receptor, alpha (TRa), gene 101949057
- PROTOCOL NOTES: ATG_trTRa_XSP2: Attagene TRANS-FACTORIAL Multi-Species (XSP1) HepG2 Assay for turtle Thyroid Hormone Receptor, alpha (TRa) (AID 2283834);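 also: hits raise reporter mRNA over the DMSO baseline so AC50 marks activators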
- Procedure: ATG_XSP2_multi-species_TRANS is a cell-based, multiplexed assay created by modifying the existing Attagene TRANS-FACTORIAL system to include a panel of nuclear receptors from some or all the following species: human (Homo sapiens), mouse (Mus musculus), frog (Xenopus laevis), zebrafish (Danio rerio), chicken (Gallus gallus), and turtle (Chrysemys picta). The ECOTOX-FACTORIAL format uses HepG2, a human liver cell line, with measurements taken at 24 hours after chemical dosing in a 24-well plate. […]
Records with an inconclusive call do not appear. Active and inactive are the calls of the source. The calls were made as follows: active = hit-call score of the fitted dose curve at least 0.9, where 1 is the maximum; inconclusive = response in the unintended direction; inactive = score below 0.9.
Answer with one of the outcomes label 1 = active, label 0 = inactive

>>> label("Oc1ccccc1Cc1ccccc1O")
"label 0"

// param item: `CC(C)(C)NC(=O)[C@H]1CC[C@H]2[C@@H]3CC[C@H]4NC(=O)C=C[C@]4(C)[C@H]3CC[C@]12C` ; yields the recorded call label 1

// param item: `COc1ccc(-c2coc3cc(O)cc(O)c3c2=O)cc1` ; yields the recorded call label 0

// param item: `Oc1ccc(-c2ccccc2)c(Cl)c1` ; yields the recorded call label 0

---

- PROTOCOL NOTES: ATG_MRE_CIS: Attagene CIS-FACTORIAL HepG2 Assay for human Metal Responsive Element (MRE) (AID 2282954)
- TEST PARAMETERS: HepG2 MRE cis-reporter transcription, Attagene multiplex; actives raise or lower the signal
Calls of active or inactive are those of the source. Rule for the calls: active = hit-call score of the fitted dose curve at least 0.9, where 1 is the maximum; inactive = score below 0.9.
Answer with one of the outcomes active, inactive

>>> label("CC(C)C(=O)OCCc1ccccc1")
"inactive"

// param item: `c1ccc2cnccc2c1` ; yields the recorded call inactive

// param item: `C=CC(=O)OCCCCCCOC(=O)C=C` ; yields the recorded call active

// param item: CC(C)(CO)C(O)C(=O)NCCCO (configuration not stated) ; yields the recorded call inactive

// param item: `C=CC(=O)OCCCCCCCCCC` ; yields the recorded call inactive

// param item: `CCCCOC(=O)CCC(C)=O` ; yields the recorded call inactive

// param item: `Cc1cc(C)n(CO)n1` ; yields the recorded call inactive

// param item: `Fc1ccc(Br)cc1` ; yields the recorded call inactive

// param item: `CCCCCCCCCCCCCc1ccccc1` ; yields the recorded call inactive

// param item: `Cc1c[nH]c(=O)[nH]c1=O` ; yields the recorded call inactive

// param item: `OCCCc1ccccc1` ; yields the recorded call inactive

// param item: `O=C(O)c1ccc2c(c1)C(=O)OC2=O` ; yields the recorded call inactive

// param item: `Clc1cccnc1` ; yields the recorded call inactive

// param item: CCCCCCCCC(CO)CCCCCC (configuration not stated) ; yields the recorded call active

---

- SYSTEM TESTED: Paired box protein Pax-6 (Homo sapiens) (UniProt P26367)
- Sequence (P26367 whole entry, looked up): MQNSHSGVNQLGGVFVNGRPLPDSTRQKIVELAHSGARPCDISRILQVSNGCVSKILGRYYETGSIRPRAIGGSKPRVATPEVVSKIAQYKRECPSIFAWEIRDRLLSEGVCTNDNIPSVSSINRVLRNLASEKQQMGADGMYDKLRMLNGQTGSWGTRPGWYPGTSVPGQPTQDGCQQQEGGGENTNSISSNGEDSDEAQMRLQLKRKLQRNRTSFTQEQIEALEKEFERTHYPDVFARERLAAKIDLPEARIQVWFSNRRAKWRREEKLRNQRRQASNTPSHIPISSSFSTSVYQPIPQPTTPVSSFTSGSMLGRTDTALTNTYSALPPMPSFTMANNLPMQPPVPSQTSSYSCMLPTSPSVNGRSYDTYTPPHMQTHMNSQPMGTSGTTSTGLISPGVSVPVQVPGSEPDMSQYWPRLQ
- PROTOCOL NOTES: ATG_Pax6_CIS: Attagene CIS-FACTORIAL HepG2 Assay for human Paired Box 6 (PAX6) (AID 2282956)
- TEST PARAMETERS: HepG2 CIS-FACTORIAL PAX6 reporter transcription, RNA readout; actives raise or lower the signal
The source made the active and inactive calls. The calls were made as follows: active = hit-call score of the fitted dose curve at least 0.9, where 1 is the maximum; inactive = score below 0.9.
Answer with one of the outcomes active, inactive

// param item: `CCCCCCCCCCCCC` ; yields the recorded call inactive

// param item: `CCCCCCCCCCCC(C)=O` ; yields the recorded call inactive

// param item: `CC(C)(C)C1CCC(=O)CC1` ; yields the recorded call inactive

---

- PROTOCOL NOTES: ATG_MRE_CIS: Attagene CIS-FACTORIAL HepG2 Assay for human Metal Responsive Element (MRE) (AID 2282954)
- TEST PARAMETERS: HepG2 MRE cis-reporter transcription, Attagene multiplex; actives raise or lower the signal
- Protocol: ATG_CIS is a cell-based, multiplexed-readout assay that uses HepG2, a human liver cell line, with measurements taken at 24 hours after chemical dosing in a 24-well plate.ATG_MRE_CIS is one of 52 assay component(s) measured or calculated from the ATG_CIS assay. […] This assay endpoint, ATG_MRE_CIS, was analyzed with bidirectional fitting relative to DMSO as the negative control and baseline of activity. […]
Active and inactive are the calls of the source. The calls were made as follows: active = hit-call score of the fitted dose curve at least 0.9, where 1 is the maximum; inactive = score below 0.9.
Answer with one of the outcomes active, inactive

// param item: `COc1ccc(-c2coc3cc(O)cc(O)c3c2=O)cc1` ; yields the recorded call active

---

- PROTOCOL NOTES: TOX21_p53_BLA_p2_viability: Viability Assessment in the Tox21 HCT-116 p53 Agonism Beta-lactamase Assay, Phase 2 (AID 2283591);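 also: compound exposure lasted 16 h at 37 °C; actives lower the ATP signal meaning cytotoxicity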
Results filed as inconclusive are left out. The source made the active and inactive calls. Rule for the calls: active = hit-call score of the fitted dose curve at least 0.9, where 1 is the maximum; inconclusive = response in the unintended direction; inactive = score below 0.9.
Answer with one of the outcomes active, inactive

These recorded examples may help you get a feel for the data.
>>> label("CC(=O)c1ccc(S(=O)(=O)NC(=O)NC2CCCCC2)cc1")
"inactive"
>>> label("CCCCCCC=O")
"inactive"
>>> label("OCCCc1ccccc1")
"inactive"

// param item: `CCCCOCCOC(=O)COc1ccc(Cl)cc1Cl` ; yields the recorded call inactive

// param item: `C=C(C)[C@@H]1CC=C(C)CC1` ; yields the recorded call inactive

// param item: C=C(C)C(=O)OCC(O)COc1ccc(C(C)(C)c2ccc(OCC(O)COC(=O)C(=C)C)cc2)cc1 (stereo not given) ; yields the recorded call active

// param item: `COc1ccc(C(=O)c2ccccc2)c(O)c1` ; yields the recorded call inactive

// param item: `CC(C)(C)NC(=O)[C@H]1CC[C@H]2[C@@H]3CC[C@H]4NC(=O)C=C[C@]4(C)[C@H]3CC[C@]12C` ; yields the recorded call inactive

// param item: `CC(C)(C)C1CCC(=O)CC1` ; yields the recorded call inactive

// param item: `CCN1CCCC1=O` ; yields the recorded call inactive

// param item: `CCCCCCOC(=O)CCCCC(=O)OCCCCCC` ; yields the recorded call inactive

// param item: `CCCCNC(=S)NCCCC` ; yields the recorded call inactive

// param item: `CC(C)=CCCC(C)=CC#N` ; yields the recorded call inactive

---

- Read-out: Matrix Metallopeptidase 1 (MMP1), MMP1 (gene 4312)
- PROTOCOL NOTES: BSK_MyoF_MMP1: BioMAP Diversity Plus: MyoF Assay for Matrix Metallopeptidase 1 (MMP1) Biomarker Activity (AID 2284268)
- TEST PARAMETERS: primary human lung fibroblasts
Activity calls are given as the source filed them. How the source made its calls: active means hit-call score of the fitted dose curve at least 0.9, where 1 is the maximum; inactive means score below 0.9.
Answer with one of the outcomes 1.0 for active, 0.0 for inactive

>>> label("CCCCCC1=CCCC1=O")
0.0
>>> label("COC(OC)(C(=O)c1ccccc1)c1ccccc1")
0.0

// param item: `c1ccc2sc(SSN3CCOCC3)nc2c1` ; yields the recorded call 1.0

// param item: `CCCCCCC=O` ; yields the recorded call 0.0

// param item: `CC/C=C\CCOC(=O)c1ccccc1O` ; yields the recorded call 0.0

// param item: C=CC(=O)OCC(C)OCC(C)OCC(C)OC(=O)C=C (stereo not drawn) ; yields the recorded call 1.0

// param item: `CC1(C)CC(O)CC(C)(C)N1[O]` ; yields the recorded call 0.0

// param item: `C=CCCCCCCCCC=O` ; yields the recorded call 0.0

---

- PROTOCOL NOTES: CCTE_Mundy_HCI_Cortical_Synap_Neur_Matur_NeuriteSpotCountPerNeuriteLength: CCTE's Synaptogenesis and Neurite Maturation Assay in rat cortical cells for Neurite Spot Count per Neurite Length, Mundy Lab (AID 2284210)
The source made the active and inactive calls. Rule for the calls: active = hit-call score of the fitted dose curve at least 0.9, where 1 is the maximum; inactive = score below 0.9. Peptide text beside a SMILES is read from it.
PROPERTY: outcome

>>> observed_measurement("CCCCNS(=O)(=O)c1ccccc1")
"inactive"
>>> observed_measurement("COC(=O)[C@H](Cc1ccccc1)NC(=O)[C@@H](N)CC(=O)O (H-Asp-Phe-OMe)")
"inactive"
>>> observed_measurement("Cc1c(C(=O)c2c[nH]n(C)c2=O)ccc(S(C)(=O)=O)c1C1=NOCC1")
"inactive"
>>> observed_measurement("Cc1noc(NS(=O)(=O)c2ccc(N)cc2)c1C")
"inactive"

---

- Read-out: serum amyloid A (SAA), SAA1 (gene 6288)
- PROTOCOL NOTES: BSK_CASM3C_SAA: BioMAP Diversity Plus: CASM3C Assay for serum amyloid A (SAA) Biomarker Activity (AID 2283049);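 also: SAA protein level quantified by ELISA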
- TEST PARAMETERS: primary human coronary artery smooth muscle cells; actives raise or lower the signal
Calls of active or inactive are those of the source. How the source made its calls: active means hit-call score of the fitted dose curve at least 0.9, where 1 is the maximum; inactive means score below 0.9.
PROPERTY: AC50

// known answers, use as guide
>>> observed_measurement("CCCCCCCO")
"inactive"
>>> observed_measurement("O=C(Oc1ccccc1)c1ccccc1C(=O)Oc1ccccc1")
"inactive"
>>> observed_measurement("CC=C(C)C=CC=C(C)C")
"inactive"
>>> observed_measurement("CCOC(=O)C1=NN(c2ccc(Cl)cc2Cl)C(C)(C(=O)OCC)C1 (stereo not given)")
"inactive"
>>> observed_measurement("O=C1CCCCCCCCCCCN1")
"inactive"
>>> observed_measurement("CCCCCCOC(=O)CCCCC(=O)OCCCCCC")
"inactive"
>>> observed_measurement("CC=C(C)C(C)=O")
"inactive"
>>> observed_measurement("Nc1nc(N)nc(-c2ccccc2)n1")
"inactive"
>>> observed_measurement("CC(CCC(=O)O)(c1ccc(O)cc1)c1ccc(O)cc1")
"inactive"
>>> observed_measurement("C=CC(=O)OCCCCCCCC(C)C")
"inactive"

Recorded AC50 of CCC1(C)C(=O)N(Cl)C(=O)N1Cl (stereo not given) , please. inactive

Recorded AC50 of `Cc1c(O)cccc1O` , please. inactive
